Target: angiotensin II receptor (Oryctolagus cuniculus, UniProt P34976)
Construct: Main abdominal aortas were removed and placed in Krebs-Henseleit buffer; from tissue; host or cells: main abdominal aorta rings (3 mm) of female New Zealand White rabbits
Sequence (P34976 1-359): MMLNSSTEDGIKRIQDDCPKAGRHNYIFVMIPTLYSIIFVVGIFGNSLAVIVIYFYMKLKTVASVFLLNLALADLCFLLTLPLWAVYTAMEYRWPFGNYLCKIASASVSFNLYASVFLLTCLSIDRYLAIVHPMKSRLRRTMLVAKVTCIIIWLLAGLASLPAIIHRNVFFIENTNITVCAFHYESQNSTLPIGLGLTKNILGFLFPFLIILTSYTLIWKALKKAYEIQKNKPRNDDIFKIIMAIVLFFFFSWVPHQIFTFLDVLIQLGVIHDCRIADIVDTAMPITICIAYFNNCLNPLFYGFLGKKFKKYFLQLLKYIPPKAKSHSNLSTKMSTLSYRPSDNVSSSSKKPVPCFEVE
Assay: Angiotensin II functional assay: antagonism of contraction of rabbit aorta (isolated tissue, Schild analysis)
Set-up: species or system rabbit (female New Zealand White)
Settings: antagonist incubated 30 minutes, negative logarithm of antagonist concentration that requires doubling of the angiotensin II concentration, read-out: pA2 (converted)
experimentalEndpoint: Kb (nM)

In [3]: df
Out[3]:
                             chemicalsmiles  measurednumber
0  CCCCN(Cc1ccc(-c2ccccc2-c2nnn[nH]2)cc1)c1nc(OC)ccc1C(=O)O           0.309
1  CCCN(Cc1ccc(-c2ccccc2-c2nn[nH]n2)cc1)c1ncccc1NS(=O)(=O)C(F)(F)F           0.631

(I) CCCCN(Cc1ccc(-c2ccccc2-c2nnn[nH]2)cc1)c1ncncc1C(=O)OCOC(=O)C(C)(C)C
(II) CCCN(Cc1ccc(-c2ccccc2-c2nn[nH]n2)cc1)c1nnccc1C(=O)O
// which entry has the larger Kb value, I or II ? Indicate your choice by writing its label.
I
(I: 0.331 nM, II: 0.214 nM)
